reported-property: pKd
Remember, pKd is on a log scale: it is -log10 of the molar concentration.

Q. Short answer please: pKd, CSNK1A1 (Homo sapiens (Human), UniProt P48729), entry CCN1CCN(c2nc3ccccc3nc2C(C#N)C(=O)OC2CCCCC2)CC1 (stereo not shown) [compound 1]
A. 5.77

---

target: GST-tagged full-length human CK1α (Homo sapiens (Human), UniProt P48729); assay: Kinase enzymatic assay, mobility shift on LabChip system (AC50); assay type: biochemical; conditions: mean AC50; 5 μM ATP; 1 μM Profiler Pro FL-Peptide 16 substrate
Sequence (P48729 whole entry): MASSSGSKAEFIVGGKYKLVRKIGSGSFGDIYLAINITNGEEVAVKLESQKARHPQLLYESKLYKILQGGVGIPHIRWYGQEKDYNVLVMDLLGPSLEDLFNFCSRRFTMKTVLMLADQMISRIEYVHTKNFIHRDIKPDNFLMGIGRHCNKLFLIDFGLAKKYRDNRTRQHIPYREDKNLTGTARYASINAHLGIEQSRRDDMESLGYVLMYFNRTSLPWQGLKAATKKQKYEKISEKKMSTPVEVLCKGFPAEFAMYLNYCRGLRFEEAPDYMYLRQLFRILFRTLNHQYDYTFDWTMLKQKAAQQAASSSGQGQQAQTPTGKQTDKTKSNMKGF
reported-property: AC50 (µM)
Use µM as the unit, but write only the number.

Q. // query AC50 value for entry CN1CCN(c2nc3ccccc3nc2C(C#N)C(=O)OCc2ccc(F)cc2)CC1 (stereo not drawn) [drawing 146]
A. 2.04

Q. Which AC50 value belongs to CCC(CC)COC(=O)C(C#N)c1nc2ccccc2nc1N1CCC(N)CC1 (stereo not drawn) [drawing 126] ?
A. 4.22

Q. Give the measured AC50 of CC(C)COC(=O)C(C#N)c1nc2ccccc2nc1N1CCC(C(N)=O)CC1 (stereo not drawn) .
A. 4.64

Q. If you can, please state the reported AC50 value of N#CC(C(=O)OCc1ccncc1)c1nc2ccccc2nc1N1CCNCC1 (stereo not drawn) .
A. 0.468

Q. Bench note: what AC50 did N#CC(C(=O)OCc1cccc(F)c1)c1nc2ccccc2nc1N1CCNCC1 (stereo not drawn) [drawing 134] show?
A. 0.353

Q. Look up AC50: CCC(CC)COC(=O)C(C#N)c1nc2ccccc2nc1NC1CCNCC1 (stereo not drawn)
A. 1.33
